Recorded values, source PubChem BioAssay AID1159580.

# protocol summary: chemical genetic growth profiling, strain panel (AID 1159580);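 also: tested at 20 µM; growth read once vehicle control cultures reached saturation at 30 °C; 1 = growth at the plate median or of vehicle wells; lower values mean less growth of the strain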
# condition description: S. cerevisiae deletion strains, growth OD, locus YHR030C, strain SLT2, stronger effect = lower value
About 2,000 (36%) of roughly 5,500 compounds were called active. Inconclusive results (about 18%) are left out. This is one part of the list.
Assignment: determine reported normalized growth for the given compounds.

So for `Cc1ccc(S(=O)(=O)/C(C#N)=N\O)cc1` , the logged normalized growth turned out to be 0.948 (inactive)

Value of measured normalized growth for the entry O=[N+]([O-])c1ccc(C2N(Cc3ccccc3)CCC3CCCCN32)cc1 (centres undefined) : 0.954 (inactive)

Entry `COc1cc(O)c(C(C)=O)c(O)c1` , normalized growth reported as 1.05 (inactive)

The reported normalized growth of the compound `N#C/C(=C\Nc1ccc2c(c1)OCCO2)S(=O)(=O)c1ccc(C(F)(F)F)cn1` was 0.593 (active)

Entry under test: `O=C(NNc1c(Cl)cccc1Cl)c1ccc([N+](=O)[O-])o1` . Its normalized growth was 0.698 (active)

Form field normalized growth, entry `Cc1ccc(/C(C#N)=C2C=C/C(=N/O)C(Cl)=C\2Cl)cc1` : 0.631 (active)

Short answer for `O=C(Oc1ccc(C2SCCS2)cc1)c1cccs1` : normalized growth was 0.667 (active)

normalized growth recorded for this compound, `Cc1c(C(=O)NCCNc2ccc(C(F)(F)F)cc2[N+](=O)[O-])cnn1-c1ccc(F)cc1` , is 0.97 (inactive)

The compound listed as `NC(=S)c1ccc2nonc2c1` has a reported normalized growth of 0.991 (inactive)

For reference, reported normalized growth for `O=C(SCc1c(Cl)cccc1Cl)c1ccc([N+](=O)[O-])o1` stands at 0.179 (active)

Documented normalized growth of `O=C(NCCNc1ccc(C(F)(F)F)cc1[N+](=O)[O-])c1cccs1` : 0.673 (active)

// sample C[N+]1(C)CCc2cc3c(cc2[C@H]1C1OC(=O)c2c1ccc1c2OCO1)OCO3 (some centres undefined) , its normalized growth was 1.06 (inactive)

Sure, the documented normalized growth for `NNC(=O)COc1ccc(C2SCCS2)cc1` is 0.104 (active)

Value of measured normalized growth for the entry `COc1ccc(/C(C)=N\NC2=NCCCN2)cc1` : 0.987 (inactive)
